- target.under.test: T1, CD19 expressed by Nalm6 cells (UniProt P15391 20-556)
- T1 chain: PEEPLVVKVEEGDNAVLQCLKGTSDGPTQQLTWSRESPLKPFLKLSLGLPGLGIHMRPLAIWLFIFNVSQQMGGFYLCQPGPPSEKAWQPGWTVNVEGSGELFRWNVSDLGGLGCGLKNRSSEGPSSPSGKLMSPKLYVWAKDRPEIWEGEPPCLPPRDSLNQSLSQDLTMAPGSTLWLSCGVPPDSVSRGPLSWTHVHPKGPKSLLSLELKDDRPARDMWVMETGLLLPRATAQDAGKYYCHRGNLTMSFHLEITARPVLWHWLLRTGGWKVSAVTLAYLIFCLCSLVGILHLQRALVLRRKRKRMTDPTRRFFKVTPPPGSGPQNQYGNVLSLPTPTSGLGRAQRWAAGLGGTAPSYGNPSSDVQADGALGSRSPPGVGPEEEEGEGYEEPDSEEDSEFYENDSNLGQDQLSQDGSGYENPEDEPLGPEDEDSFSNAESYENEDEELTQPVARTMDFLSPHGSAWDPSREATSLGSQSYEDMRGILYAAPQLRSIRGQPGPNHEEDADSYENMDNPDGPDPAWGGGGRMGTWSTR
- procedure.summary: flow cytometry
Can you tell me log10 of EC50 for the items I'm about to list?
Heads up, the numbers here are log10 of EC50 in µg/mL units.

-- ask Look up log10 of EC50 of 27F11 (hybridoma antibody) (antibody, V domains shown, hybridoma mAb from H2L2 mouse (human variable, rat constant regions)) VH: QVQLVESGGGVVQPGRSLRLSCAASGFTFSRHGMHWVRQAPGKGLEWVAVIYYDGSNKYYVDSVKGRFTISRDNSKNTLDLQMNSLRAEDTAVYYCARRSITWNGAFDIWGQGTMVTVSS VL: DIQMTQSPSTLSASVGDRVTISCRASQSISSWLAWYQQKPGKAPKLLIYKASSLESGVPSRFSGSGSGTEFTLTISSLQPDDFATYYCQQYNSAYTFGQGTKLEIK and report it.
-- reply 1.76

-- ask Return reported log10 of EC50. Input binder: 52F9 (hybridoma antibody) (antibody, V domains shown, hybridoma mAb from H2L2 mouse (human variable, rat constant regions)) VH: QVQLVESGGGVVQAGRSLRLSCAASGFTFSNYGIHWVRQAPGKGLEWVGVIWHDGSIKNYADFVKGRFTISRDNSEDTLYLQMNSLRAEDTAVYYCAREQGNYYGWGSYKAFDIWGQGTMVTVSS VL: DIQLTQSPSFLSVFVGDRVTITCRASQGISNYLAWYQQKPGKAPELLLYATSTLQSGVPSRLSGSGSGTEFTLTLSSLQPEDFATYYCQQVYSFPYTFGQGTKLEIK
-- reply 0.27

-- ask Answer with the recorded log10 of EC50 for the binder listed here: 17B6 (hybridoma antibody) (antibody, V domains shown, hybridoma mAb from H2L2 mouse (human variable, rat constant regions)) VH: QVQLVESGGGVVQPGRSLRLSCEASGFTFSRHGMHWVRQAPGKGLEWVAVIFYDGSQNYYADSVRGRFTISRDNSKNTLSLQMDSLRAEDTAVYYCARRSITWNGGFDIWGQGTMVTVSP VL: DIQMTQSPSTLSASVGDRVTITCRASQSISSWLAWYQQKPGKAPKLLIYKASSLESGVPSRFSGSGSGTEFTLAISSLQPDDFATYYCQQYNRFYTFGQGTKLEIK
-- reply 1.57

-- ask Check the records and state log10 of EC50 for 31A2 (hybridoma antibody) (antibody, V domains shown, hybridoma mAb from H2L2 mouse (human variable, rat constant regions)) VH: QVQLVESGGGVVQPGRSLRLSCAASGFTFSRHGMHWVRQAPGKGLEWVAVIWYDGSNKYYVDSVKGRFTISRDNSKNTLDLQMNSLRAEDTAVYYCARRSITWDGAFDIWGQGTMVTVSS VL: DIQMTQSPSTLSASVGDRVTISCRASQSISSWLAWYQQKPGKAPKLLIYKASSLESGVPSRFSGSGSGTEFTLTISSLQPDDFATYYCQQYNSAYTFGQGTKLEIK
-- reply 1.36

-- ask Name the recorded log10 of EC50 of the item 15F2 (hybridoma antibody) (antibody, V domains shown, hybridoma mAb from H2L2 mouse (human variable, rat constant regions)) VH: QVQLVESGGGVVQPGRSLRLSCAASGFTFSRHGMHWVRQAPGKGLEWVAVIWYDGSNKYYVDSVKGRFTISRDNSKNTLDLQMNSLRAEDTAVYYCARRSITWDGAFDIWGQGTMVTVSS VL: DIQMTQSPSTLSASVGDRVTVTCRASQSIRSWLAWYQQKPGKAPKLLIYKASSLESGVPSRFSGSGSGTEFTLTISSLQPDDFATYYCQQYNSAYTFGQGTKLEIK in your answer.
-- reply 1.39

-- ask Quote log10 of EC50 reported for 11H8 (hybridoma antibody) (antibody, V domains shown, hybridoma mAb from H2L2 mouse (human variable, rat constant regions)) VH: QVQLVESGGGVVQPGRSLRLSCAASGFTFSRHGMHWVRQAPGKGLEWVAVIWYDGSNQYYVDSVKGRFTISRDNSKNTLDLQMNSLRVEDTAVYYCARRSITWYGGFDIWGQGTMVTVSS VL: DIQMTQSPSTLSASVGDRVTITCRASQSISSWLAWYQQKPGKAPKLLIYKASSLESGVPPRFSGSGSGTEFTLTISSLQPDDFATYYCQQYNSAYTFGQGTKLEIK please.
-- reply 1.07
